Target: T1, 4H3056-AA
T1 chain: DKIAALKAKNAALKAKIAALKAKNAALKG
Experiment: two-hybrid library CCmax;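 further: natural log of median RNA to DNA barcode read ratio; higher means stronger binding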
Conditions: mean of both orientations
quantity kind: interaction score

Record excerpt, results attached:
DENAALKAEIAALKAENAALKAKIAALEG [4H1629-AA] :: -1.6
DKIAALKAKIAALKAENAALKAENAALEG [4H2907-AA] :: -2.08
DKIAALKAEIAALEAKNAALKAENAALKG [4H2620-AA] :: -1.79

a. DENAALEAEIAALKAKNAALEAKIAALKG [4H1142-AA]
b. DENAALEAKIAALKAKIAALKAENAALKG [4H1388-AA]
Sorting by interaction score in descending order, would a or b appear first? Bench note: the answer is the label of the chosen record.
a

a. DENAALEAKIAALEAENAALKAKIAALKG [4H1310-AA]
b. DENAALKAKIAALKAENAALEAEIAALKG [4H1874-AA]
Sorting by interaction score in descending order, would a or b appear first? Bench note: the answer is the label of the chosen record.
b

a. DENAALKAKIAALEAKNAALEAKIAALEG [4H1845-AA]
b. DKIAALEAENAALEAENAALEAKIAALKG [4H2198-AA]
Sorting by interaction score in descending order, would a or b appear first? Bench note: the answer is the label of the chosen record.
b
(b: -0.0509, a: -1.58)
